target: Human HER3, endogenous, on human cancer cell lines (SK-Br-3, MCF7, BT-474) (human, UniProt P21860 20-1342); experiment: cell-based or functional assay
Sequence (P21860 20-1342): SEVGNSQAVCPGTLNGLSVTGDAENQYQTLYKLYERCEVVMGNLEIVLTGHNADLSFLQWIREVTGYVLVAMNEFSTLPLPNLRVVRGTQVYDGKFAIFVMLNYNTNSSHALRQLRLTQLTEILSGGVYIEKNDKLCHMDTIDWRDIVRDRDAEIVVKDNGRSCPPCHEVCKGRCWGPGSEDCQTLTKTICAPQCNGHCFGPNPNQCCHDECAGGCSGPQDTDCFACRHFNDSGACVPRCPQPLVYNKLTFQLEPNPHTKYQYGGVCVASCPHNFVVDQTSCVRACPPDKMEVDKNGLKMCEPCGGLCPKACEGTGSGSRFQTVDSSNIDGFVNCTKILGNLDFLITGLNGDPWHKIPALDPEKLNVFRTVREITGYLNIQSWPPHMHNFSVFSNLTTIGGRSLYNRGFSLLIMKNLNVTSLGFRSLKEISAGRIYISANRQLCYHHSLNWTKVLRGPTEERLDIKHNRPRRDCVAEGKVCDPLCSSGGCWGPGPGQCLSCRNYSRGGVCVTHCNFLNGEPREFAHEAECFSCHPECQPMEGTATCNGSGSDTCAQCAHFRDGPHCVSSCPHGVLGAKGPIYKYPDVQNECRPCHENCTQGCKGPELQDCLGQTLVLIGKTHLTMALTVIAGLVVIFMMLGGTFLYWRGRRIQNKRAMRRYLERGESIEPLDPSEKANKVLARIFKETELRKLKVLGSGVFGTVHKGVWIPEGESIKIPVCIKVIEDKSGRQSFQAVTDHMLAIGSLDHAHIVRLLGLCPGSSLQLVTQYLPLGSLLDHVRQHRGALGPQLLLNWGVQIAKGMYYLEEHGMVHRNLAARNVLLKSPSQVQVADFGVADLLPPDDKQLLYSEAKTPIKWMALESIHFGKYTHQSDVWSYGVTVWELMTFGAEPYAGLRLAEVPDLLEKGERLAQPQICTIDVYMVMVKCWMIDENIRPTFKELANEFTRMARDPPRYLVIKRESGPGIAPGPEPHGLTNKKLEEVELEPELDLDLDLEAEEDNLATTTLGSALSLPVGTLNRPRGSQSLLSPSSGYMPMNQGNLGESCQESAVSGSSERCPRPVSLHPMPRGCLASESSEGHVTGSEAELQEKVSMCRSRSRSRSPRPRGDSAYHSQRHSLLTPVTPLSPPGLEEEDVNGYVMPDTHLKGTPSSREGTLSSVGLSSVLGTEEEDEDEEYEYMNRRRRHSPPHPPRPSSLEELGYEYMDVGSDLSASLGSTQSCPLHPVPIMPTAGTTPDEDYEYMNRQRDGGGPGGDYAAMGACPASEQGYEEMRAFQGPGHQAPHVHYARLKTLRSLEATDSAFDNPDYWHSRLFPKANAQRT
measured endpoint: BT474 pHER3 % inhibition (%)
One number for each entry, in %.

1. MOR13756 (antibody, human IgG1, kappa, V domains shown, tested as IgG) VH: QVQLVQSGAEVKKPGESLKISCKGSGYSFTLTWVAWVRQMPGKGLEWMGIIYPGQSDTIYSPSFQGQVTISADKSISTAYLQWSSLKASDTAMYYCARVHIIQPPSAWSYNAMDVWGQGTLVTVSS VL: DIQMTQSPSSLSASVGDRVTITCRASQSISTYLNWYQQKPGKAPKLLIFGASNLQSGVPSRFSGSGSGTDFTLTISSLQPEDFATYYCQQSITELFTFGQGTKVEIKR
66

What does the record list as BT474 pHER3 % inhibition for MOR13752 (antibody, human IgG1, kappa, V domains shown, tested as IgG) VH: QVQLVQSGAEVKKPGESLKISCKGSGYSFTNYWVAWVRQMPGKGLEWMGIIYPGGSDTIYSPSFQGQVTISADKSISTAYLQWSSLKASDTAMYYCARVHIIQPPSAWSYNAMDVWGQGTLVTVSS VL: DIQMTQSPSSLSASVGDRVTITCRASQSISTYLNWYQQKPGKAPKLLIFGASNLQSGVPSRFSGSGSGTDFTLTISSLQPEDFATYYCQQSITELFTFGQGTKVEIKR ? 45
